System: A/WSN/1933 (H1N1) virus
Assay: Cytopathic prevention assay in MDCK cells, H1N1
Format: cell-based, influenza A/WSN/1933 (H1N1)
Settings: A/WSN/1933 (H1N1) virus, table data are ranges or single assay results, read-out: EC50 (nM), anti-influenza activity
Quantity Name: EC50

>>> print(df.to_string())
                                   compound  quantity_name  reported_value
0  CC(=O)NC1C(NC(=N)N)C=C(C(=O)O)OC1C(OC(=O)NCCCNC(=O)C=Cc1ccc(O)c(O)c1)C(O)CO (centres unmarked) [ZA-7-CA-amide (7)]           EC50          5.9 nM
1  CC(=O)N[C@H]1[C@H]([C@H](O)[C@H](O)CO)OC(C(=O)O)=C[C@@H]1N=C(N)N [ZA, zanamivir, reference compound]           EC50  3.5 to 20.2 nM

====

Target: neuraminidase of influenza A/WSN/1933 (H1N1) virus (Influenza A virus)
Sequence (P03470 whole entry, looked up): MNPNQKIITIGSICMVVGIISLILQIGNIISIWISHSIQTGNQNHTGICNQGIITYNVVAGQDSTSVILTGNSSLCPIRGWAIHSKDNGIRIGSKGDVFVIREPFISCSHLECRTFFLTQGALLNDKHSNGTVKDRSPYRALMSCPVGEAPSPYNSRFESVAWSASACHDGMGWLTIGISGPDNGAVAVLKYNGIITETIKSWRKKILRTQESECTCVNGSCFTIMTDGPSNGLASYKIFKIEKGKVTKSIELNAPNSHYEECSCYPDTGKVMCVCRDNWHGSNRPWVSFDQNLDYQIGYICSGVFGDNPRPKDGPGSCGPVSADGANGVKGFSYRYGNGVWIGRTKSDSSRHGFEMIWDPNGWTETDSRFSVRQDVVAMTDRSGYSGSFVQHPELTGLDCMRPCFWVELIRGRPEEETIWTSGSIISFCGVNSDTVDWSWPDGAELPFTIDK
Assay: biochemical
Format: biochemical
pIC50: −log10 of the molar value.
# if value of pIC50 reaches 6, tag Fulfilled; if it stays below, tag Not fulfilled

>>> df
                                   compound    class_label
0  CC(=O)NC1C(NC(=N)N)C=C(C(=O)O)OC1C(OC(=O)NCCCNC(=O)c1ccc2ccccc2c1O)C(O)CO (stereo not shown) [ZA-7-HNAP-amide (8)]      Fulfilled
1  CC(=O)NC1C(NC(=N)N)C=C(C(=O)OCCCOC(=O)C=Cc2ccc(O)c(O)c2)OC1C(O)C(O)CO (stereo not shown) [ZA-1-CA (9)]  Not fulfilled
2  CC(=O)NC1C(NC(=N)N)C=C(C(=O)OCCCOC(=O)C=Cc2ccc3c(c2)OCO3)OC1C(O)C(O)CO (stereo not shown) [ZA-1-MCA (10)]  Not fulfilled
3  CC(=O)NC1C(N=C(N)N)C=C(C(=O)OCCCOC(=O)c2ccc3ccccc3c2O)OC1C(O)C(O)CO (stereo not shown) [ZA-1-HNAP (12)]      Fulfilled
4  CC(=O)NC1C(NC(=N)N)C=C(C(=O)O)OC1C(OC(=O)NCCCOC(=O)c1ccc(O)c(O)c1)C(O)CO (stereo not shown) [ZA-7-DHBA (5)]      Fulfilled

====

Tested on: recombinant NIBRG-14 (A/Viet Nam/1194/2004) H5N1 virus
Experiment: microbe, parasite or virus in culture
Format: cell-based, avian H5N1 influenza virus
Conditions: Influenza A virus, H5N1, read-out: EC50 against avian H5N1 virus
Entries annotated with measured EC50
Quantity Name: EC50 (nM)

>>> print(df.to_string())
                                   molecule                              assay_system  reported_value
0  CC(=O)NC1C(NC(=N)N)C=C(C(=O)O)OC1C(OC(=O)NCCCO)C(O)CO (stereo not shown) [ZA-7-HP (6)]  recombinant NIBRG-14 (A/Viet Nam/1194/2004) H5N1 virus             820
1  CC(=O)NC1C(NC(=N)N)C=C(C(=O)O)OC1C(OC(=O)NCCCOC(=O)c1cc(N)ccc1O)C(O)CO (stereo not shown) [ZA-7-ME (3)]  recombinant NIBRG-14 (A/Viet Nam/1194/2004) H5N1 virus             430
2  CC(=O)NC1C(NC(=N)N)C=C(C(=O)O)OC1C(OC(=O)NCCCOC(=O)C=Cc1ccc(O)c(O)c1)C(O)CO (stereo not shown) [ZA-7-CA (1)]  recombinant NIBRG-14 (A/Viet Nam/1194/2004) H5N1 virus              50
3  CC(=O)N[C@H]1[C@H]([C@H](O)[C@H](O)CO)OC(C(=O)O)=C[C@@H]1N=C(N)N [ZA, zanamivir, reference compound]  recombinant NIBRG-14 (A/Viet Nam/1194/2004) H5N1 virus             680
